Target: T1, extracellular region of human PD-L1 protein (positions 19-238 of SEQ ID NO: 3) (human, UniProt Q9NZQ7 19-238)
T1 construct: also called Human PD-L1-his; antigen PD-L1
T1 sequence (Q9NZQ7 19-238): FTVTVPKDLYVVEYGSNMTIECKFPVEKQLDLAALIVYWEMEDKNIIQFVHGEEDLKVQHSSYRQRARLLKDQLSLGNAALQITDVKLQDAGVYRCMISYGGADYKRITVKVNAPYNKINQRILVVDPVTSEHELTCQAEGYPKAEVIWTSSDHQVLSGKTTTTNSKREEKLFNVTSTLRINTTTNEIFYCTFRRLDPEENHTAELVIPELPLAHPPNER
Experiment: ForteBio Octet (BLI), antibody immobilized, PD-L1 ECD 6.25-200 nM; antibody after purification
Please provide measured koff for the entries that follow.
Numbers only, in s⁻¹.

| binder | unitAbbreviation | koff |
| --- | --- | --- |
| murine antibody 8A2 (A8) (antibody, V domains shown, Mouse hybridoma antibody (subclone 8A2-2); Only variable domains printed; also called 8A2-2) VH: QVQLKQSGPGLVAPSQSLSITCTVSGFSLTGYGVNWVRQPPGKGLEWLGKIWGDGITDYNSALKSRLSISKDNSKSQVFLKMNSLQTDDTARYYCARDVMDYWGQGTSVTVSS VL: QIVLTQSPAIMSASPGEKVTMTCSASSSISYMHWYQQKPGTSPKRWIYDTSKLASGVPARFSGSESGTSYSLTISSMEAEDAATYYCHHRSPYPTFGAGTKLELK | s⁻¹ | 0.137 |

Now let's try a different one.
// lookup koff for murine antibody 14A7 (A1) (antibody, V domains shown, Mouse hybridoma antibody (subclone 14A7-4), tested as culture supernatant or purified from it; Only the variable domains are printed; also called 14A7-4) VH: QVQLKQSGAELVRPGTSVKMSCKATEYTFTNNWIAWVKQRPGHGLEWVGDIHPGGGFTNYNEKFKVKATLTADTSSSTAYMQLRSLTSEDSAIYYCAGSKTRDYDAWFAYWGQGTLVTVSA VL: DIVMTQAPSSLAVSVGEKVTLNCKSSQSLLYTGNQKNYLAWYQQKPGQSPKLLIYWASTRESGVPDRFTGSGSGTDFTLTISNVKAEDLAVYFCQQYYTYRTFGGGTKLEIK
0.000647
